The reported numbers originate from patent US20250027068.

Recorded measurements of Enzyme Activity Endpoint Assay (purified): Fab′2, one per entry
Biological target: pooled human IgG (human IgG1, 2, 3 and 4)
Only the number, expressed in ng/µL, is required.

Recorded results for 2 proteins are shown here.
- protein: "PRT-398 (protein) MVTSVWTKGVTPPADFTQGEDVFHAPYVANQGWYDITKTFNGKDDLLCGAATAGNMLHWWFDQNKEYIEAYLKKHPEKQKIMFGDQELLDVRKAINTKGSQKNSELFNYFRDKAFPNLSARRLGVMPDLVLDMFINGYYLNVTKTQTTDVNRTYQEKDKRGGIFDAVFTRGDQSKLLTSRHDFKEKGLKEISDLIKQELTEGKALGLSHTYANVRINHVINLWGADFDSDGNLKAIYVTDSDSNASIGMKKYDVGVNSAGKVAISAKEIKEDNIGAQVLGLFTLSTGQDIWNQTN"
  result value: 555
- protein: "PRT-461 (protein) MVTSVWTKGVTPPTDFRKIVDGNIAYYHAPYKAGQGWYDITKTFNGKDDLLCGAATAGNMLHWWFDQNKDQIERYLKEHPEKQKINFNGEQMFDVKEAIDTKDSQTDSKLFEYFKEKAFPYLSTKHLGVFPDHVLDMFINGYRLSLTNHGPTPVKEGSKDPRGGIFDAVFTRGDQSKLLTSRHDFKEKTLKEISDLIKQELTEGKALGLSHTYANVRINHVINLWGADFDSEGNLKAIYVTDSDSNASIGMKKYFVGVNSAGKVAISAKEIKEDNIGAQVLGLFTLSTGQDIWNQTNLEHHHHHH"
  result value: 399

Attention now turns to another entry.
### Prompt Request the reported Enzyme Activity Endpoint Assay (purified): Fab′2 associated with PRT-433 (protein) MSQTEDSESLQRLRDIEDFQAEKKKQNVVYTKWLDGVDVKDHDFRKIVDGNIAYYATPLLNGRGFYDINKDFNRDSDKCAAAVAANMFHYWLDRNRDNVDRFLRQNPEKHGIIELPDGQLKLSDFLNTYESDDGYRDKSKLFDFISNNFNGPVWTDKLLDNYINGYAYNYKYGRTIEDPTKNTSKINFFKEVFNEKILTNNHSIRNQNEFSVLLIEALYTGKAIGLSYGPAGLRHSLGHIISVWGADLDADGNVVAIYVTDSDDKKLTIGDERVGLKRYKISTDDEGRLRLTAYEETHNTGGQIRGLWTLDTGKQAWADYFDKTEQTGTDQAEQ
### Response 575
